compounds and their reported CTG-3D luminescence at 96 h
test system: HCI-008 (organoid from a HER2-enriched breast cancer xenograft); assay: CTG-3D luminescence at 96 h relative to day-0 seeding control (ratio to day 0); higher = more growth / less cytotoxicity; PDxO 3D drug screen, 96 h, CTG-3D normalised to day-0 seeding control.; conditions: 0.00025 µM; days in culture: 228

Known results for compounds:
[[record]]
compound = "CC(C)(C(=O)NCC(F)(F)C(F)(F)F)C(=O)N[C@@H]1C(=O)Nc2ccccc2-c2ccccc21"
assay_result = 1.41

[[record]]
compound = "COc1cc2c(Oc3ccc4[nH]c(C)cc4c3F)ncnc2cc1OCCCN1CCCC1 [cediranib]"
assay_result = 1.99

[[record]]
compound = "Cc1nc(-c2cn3c(n2)-c2ccc(-c4cnn(C(C)(C)C(N)=O)c4)cc2OCC3)n(C(C)C)n1 [taselisib]"
assay_result = 1.54

[[record]]
compound = "CC(C)n1nc(-c2ccc3oc(N)nc3c2)c2c(N)ncnc21 [sapanisertib]"
assay_result = 1.78

[[record]]
compound = "CS(=O)(=O)c1ccc(C(=O)Nc2ccc(Cl)c(-c3ccccn3)c2)c(Cl)c1 [vismodegib]"
assay_result = 1.74


**Q:** Recorded CTG-3D luminescence at 96 h for C[C@@H]1COCCN1c1cc(C2([S@](C)(=N)=O)CC2)nc(-c2cc[nH]c3nccc2-3)n1 [ceralasertib] , please?
**A:** 1.95

**Q:** What would you report for CCN1CCN(Cc2ccc(Nc3ncc(F)c(-c4cc(F)c5nc(C)n(C(C)C)c5c4)n3)nc2)CC1 [abemaciclib] ?
**A:** 1.63

**Q:** Moving on to the next compound: NC(=O)Nc1cc(-c2cccc(F)c2)sc1C(=O)N[C@H]1CCCNC1 [AZD7762]
**A:** 1.9

---

system: HCI-025 (organoid from a breast cancer xenograft); test: CTG-3D luminescence at 96 h relative to day-0 seeding control (ratio to day 0); higher = more growth / less cytotoxicity; PDxO 3D drug screen, 96 h, CTG-3D normalised to day-0 seeding control.; settings: 625 fM; days in culture: 209
property.measured: CTG-3D luminescence at 96 h
Just the number.

[[record]]
molecule = "O=C(c1ccc(F)c(F)c1Nc1ccc(I)cc1F)N1CC(O)([C@@H]2CCCCN2)C1 [cobimetinib]"
assay_result = 1.83

[[record]]
molecule = "C[C@@H]1COCCN1c1cc(C2([S@](C)(=N)=O)CC2)nc(-c2cc[nH]c3nccc2-3)n1 [ceralasertib]"
assay_result = 1.38

[[record]]
molecule = "C=CCn1c(=O)c2cnc(Nc3ccc(N4CCN(C)CC4)cc3)nc2n1-c1cccc(C(C)(C)O)n1 [adavosertib]"
assay_result = 2.05


Alright, here's another molecule for you.
**Q:** Request the reported CTG-3D luminescence at 96 h associated with CCN1CCN(Cc2ccc(Nc3ncc(F)c(-c4cc(F)c5nc(C)n(C(C)C)c5c4)n3)nc2)CC1 [abemaciclib]
**A:** 1.49

---

tested on: HCI-002 (organoid from a triple-negative breast cancer xenograft); experiment: CTG-3D luminescence at 96 h relative to day-0 seeding control (ratio to day 0); higher = more growth / less cytotoxicity; PDxO 3D drug screen, 96 h, CTG-3D normalised to day-0 seeding control.; conditions: 0.00025 µM; days in culture: 209
// reported CTG-3D luminescence at 96 h per item
Give only the figure.

A selection of reference data follows.
[[record]]
smiles_code = "NC1(C(=O)N[C@@H](CCO)c2ccc(Cl)cc2)CCN(c2nc[nH]c3nccc2-3)CC1"
assay_result = 2.32

[[record]]
smiles_code = "C=CC(=O)N1CCC[C@@H](n2nc(-c3ccc(Oc4ccccc4)cc3)c3c(N)ncnc32)C1"
assay_result = 2.16

[[record]]
smiles_code = "NC(=O)Nc1cc(-c2cccc(F)c2)sc1C(=O)N[C@H]1CCCNC1"
assay_result = 2.27


**Q:** I would be grateful if you could share the reported CTG-3D luminescence at 96 h for `CC[C@H](NC(=O)[C@H](C)NC)C(=O)N1C[C@@H](O)C[C@H]1Cc1c(-c2[nH]c3cc(F)ccc3c2C[C@@H]2C[C@H](O)CN2C(=O)[C@H](CC)NC(=O)[C@H](C)NC)[nH]c2cc(F)ccc12` .
**A:** 2.16

**Q:** Queued: `C[C@H](NC(=O)CCC(F)(F)F)C(=O)N[C@@H]1C(=O)N(CCO)c2ncccc2-c2ccccc21`
**A:** 2.47

**Q:** Try this compound too: `CC(C)n1nc(-c2ccc3oc(N)nc3c2)c2c(N)ncnc21`
**A:** 2.26

**Q:** Cool, now `CC(=O)O[C@H]1C(=O)[C@@]2(C)[C@H]([C@H](OC(=O)c3ccccc3)[C@]3(O)C[C@H](OC(=O)[C@H](O)[C@@H](NC(=O)c4ccccc4)c4ccccc4)C(C)=C1C3(C)C)[C@]1(OC(C)=O)CO[C@@H]1C[C@@H]2O`
**A:** 2.21

**Q:** Another compound to check: `NC(=O)c1cccc2cn(-c3ccc([C@@H]4CCCNC4)cc3)nc12`
**A:** 2.96

**Q:** Also check `CS(=O)(=O)c1ccc(C(=O)Nc2ccc(Cl)c(-c3ccccn3)c2)c(Cl)c1`
**A:** 2.86

**Q:** Note, next up: `Cc1cc(Nc2ncnc3ccc(NC4=NC(C)(C)CO4)cc23)ccc1Oc1ccn2ncnc2c1`
**A:** 2.16

meta.source: the supplement of paper PMC8882468
